assay: Antioxidant activity assessed as bleomycin-Fe2+-induced DNA degradation after 1 hr by spectrophotometry; type: physicochemical

Compound: Cc1ccc(C(C(=O)NC(C)(C)C)N(CCc2c[nH]c3ccccc23)C(=O)c2ccccc2[Se][Se]c2ccccc2C(=O)N(CCc2c[nH]c3ccccc23)C(C(=O)NC(C)(C)C)c2ccc(C)cc2)cc1 (centres undefined)
OD: 0.073
--
Compound: O=C(O)/C=C\C(=O)Nc1ccc([Se][Se]c2ccc(NC(=O)/C=C\C(=O)O)cc2)cc1
OD: 0.089
--
Compound: N#C[Se]c1ccc(NC(=O)CCCC(=O)O)cc1
OD: 0.068
--
Compound: N#C[Se]c1ccc(N2C(=O)CCC2=O)cc1
OD: 0.065
--
Compound: N#C[Se]c1ccc(NC(=O)/C=C\C(=O)O)cc1
OD: 0.051
--
Compound: N#C[Se]c1ccc(NC(=O)CCC(=O)O)cc1
OD: 0.053
--
Compound: O=C1O[C@H]([C@@H](O)CO)C(O)=C1O [ASCORBIC ACID]
OD: 0.062
--
Compound: O=C1CCC(=O)N1c1ccc([Se][Se]c2ccc(N3C(=O)CCC3=O)cc2)cc1
OD: 0.074
--
Compound: O=C1C=CC(=O)N1c1ccc([Se][Se]c2ccc(N3C(=O)C=CC3=O)cc2)cc1
OD: 0.055
